Target: CRE1/AHK4 (Arabidopsis thaliana, UniProt Q9C5U0)
Sequence (Q9C5U0 whole entry): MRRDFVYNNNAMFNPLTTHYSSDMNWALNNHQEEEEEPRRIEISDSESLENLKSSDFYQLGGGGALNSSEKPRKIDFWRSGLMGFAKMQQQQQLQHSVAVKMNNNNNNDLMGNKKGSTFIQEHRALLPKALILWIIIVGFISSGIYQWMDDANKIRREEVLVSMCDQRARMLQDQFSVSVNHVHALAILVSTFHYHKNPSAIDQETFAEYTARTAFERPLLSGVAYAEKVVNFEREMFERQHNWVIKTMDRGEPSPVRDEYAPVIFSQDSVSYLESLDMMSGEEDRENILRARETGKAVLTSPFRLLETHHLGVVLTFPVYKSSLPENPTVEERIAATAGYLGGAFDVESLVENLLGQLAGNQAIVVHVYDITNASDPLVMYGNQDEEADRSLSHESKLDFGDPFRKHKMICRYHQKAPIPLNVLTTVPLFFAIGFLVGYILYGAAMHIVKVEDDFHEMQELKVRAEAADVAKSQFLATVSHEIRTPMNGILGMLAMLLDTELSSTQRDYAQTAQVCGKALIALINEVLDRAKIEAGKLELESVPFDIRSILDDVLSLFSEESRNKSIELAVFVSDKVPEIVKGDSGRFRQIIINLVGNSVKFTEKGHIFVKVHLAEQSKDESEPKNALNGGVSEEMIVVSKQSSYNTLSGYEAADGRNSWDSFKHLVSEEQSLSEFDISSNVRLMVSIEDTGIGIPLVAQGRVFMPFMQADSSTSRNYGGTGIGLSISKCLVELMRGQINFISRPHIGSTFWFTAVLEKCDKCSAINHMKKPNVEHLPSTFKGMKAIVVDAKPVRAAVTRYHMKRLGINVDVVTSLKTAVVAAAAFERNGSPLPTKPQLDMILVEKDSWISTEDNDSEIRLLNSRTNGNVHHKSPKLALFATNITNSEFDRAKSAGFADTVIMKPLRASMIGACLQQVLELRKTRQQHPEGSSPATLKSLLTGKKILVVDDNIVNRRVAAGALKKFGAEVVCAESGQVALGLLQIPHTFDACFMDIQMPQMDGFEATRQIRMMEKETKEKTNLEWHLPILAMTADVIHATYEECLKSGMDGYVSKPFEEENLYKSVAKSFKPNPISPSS
Test: Activation of cytokinin receptors (E. coli KMI001 beta-galactosidase reporter)
Conditions: 17 h incubation; n.a. means no activation
measurement-label: EC50 (µM)
Write the answer as a number in µM, unit excluded.

Worked set:
# compound, experimental-target, EC50 (µM)
rows = [
    ("Clc1cccc(Nc2nc(Cl)nc3nc[nH]c23)c1 [Compound 3, 2-Chloro-6-(3-chloroanilino)purine]", "CRE1/AHK4 (Arabidopsis thaliana, UniProt Q9C5U0)", 7.5),
    ("COc1cccc(Nc2nc(Cl)nc3nc[nH]c23)c1 [Compound 12, 2-Chloro-6-(3-methoxyanilino)purine]", "CRE1/AHK4 (Arabidopsis thaliana, UniProt Q9C5U0)", 31.3),
    ("CSc1nc(Nc2cccc(Cl)c2)c2nc[nH]c2n1 [Compound 96]", "CRE1/AHK4 (Arabidopsis thaliana, UniProt Q9C5U0)", 41),
    ("Fc1nc(Nc2ccc(Cl)cc2)c2nc[nH]c2n1 [Compound 43]", "CRE1/AHK4 (Arabidopsis thaliana, UniProt Q9C5U0)", 39.8),
    ("Cc1ccc(Nc2nc(Cl)nc3[nH]cnc23)cc1C [Compound 30]", "CRE1/AHK4 (Arabidopsis thaliana, UniProt Q9C5U0)", 33.3),
]

Noted for Fc1nc(Nc2cccc(Cl)c2)c2nc[nH]c2n1 [Compound 42] : its EC50 reads 21

Lookup result for C/C(=C\CNc1ncnc2nc[nH]c12)CO [trans-zeatin, reference compound] ; measured EC50: 0.9

Form: compound = Oc1cccc(Nc2nc(F)nc3[nH]cnc23)c1 [Compound 48] ; EC50 = 49.6

###

Target: recombinant AtCKX2 (Arabidopsis thaliana, UniProt Q9FUJ3)
Sequence (Q9FUJ3 23-501): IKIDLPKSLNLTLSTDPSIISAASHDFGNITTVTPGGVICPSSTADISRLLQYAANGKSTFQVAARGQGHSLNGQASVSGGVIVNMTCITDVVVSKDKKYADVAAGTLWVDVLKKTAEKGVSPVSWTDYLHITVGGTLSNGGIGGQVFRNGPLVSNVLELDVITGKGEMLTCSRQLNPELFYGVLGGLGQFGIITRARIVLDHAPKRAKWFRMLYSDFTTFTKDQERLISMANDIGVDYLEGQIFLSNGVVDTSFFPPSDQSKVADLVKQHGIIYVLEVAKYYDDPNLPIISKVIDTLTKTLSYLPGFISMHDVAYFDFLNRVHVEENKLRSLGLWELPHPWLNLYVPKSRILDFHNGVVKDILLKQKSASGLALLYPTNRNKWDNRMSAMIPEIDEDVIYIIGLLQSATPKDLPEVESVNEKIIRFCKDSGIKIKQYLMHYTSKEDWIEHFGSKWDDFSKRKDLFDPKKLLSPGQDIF
Assay: Inhibition of cytokinin oxidase/dehydrogenase activity (PMS/MTT microtitre plate assay)
Type: biochemical
Conditions: 30 μM iP as substrate, pH 7.4, 37° C.; means of three replicates; read-out: IC50, inhibition of recombinant AtCKX2
Recorded pIC50 for the following compounds
Recall that pIC50 is obtained by taking minus log10 of the concentration measured in molar.

Known pIC50 results, listed for orientation:
# compound, experimental-target, reported-measurement
records = [
    ("Nc1nc(Nc2cccc(Cl)c2)c2nc[nH]c2n1 [Compound 66]", "recombinant AtCKX2 (Arabidopsis thaliana, UniProt Q9FUJ3)", 4.59),
    ("Cc1nc(Nc2cccc(Cl)c2)c2nc[nH]c2n1 [Compound 111]", "recombinant AtCKX2 (Arabidopsis thaliana, UniProt Q9FUJ3)", 4.80),
]

Lookup result for Fc1cccc(Nc2nc(S)nc3[nH]cnc23)c1 [Compound 83] ; measured pIC50: 4.65

Nc1nc(Nc2cccc(F)c2)c2nc[nH]c2n1 [Compound 69] yielded pIC50 of 4.53

The reported pIC50 of the compound Fc1cccc(Nc2nc(F)nc3[nH]cnc23)c1 [Compound 45] was 4.66
